molecular target: human IL-21R expressed on cells (human, UniProt Q9HBE5 20-538); experiment: cell-based or functional assay
Sequence (Q9HBE5 20-538 limits assumed): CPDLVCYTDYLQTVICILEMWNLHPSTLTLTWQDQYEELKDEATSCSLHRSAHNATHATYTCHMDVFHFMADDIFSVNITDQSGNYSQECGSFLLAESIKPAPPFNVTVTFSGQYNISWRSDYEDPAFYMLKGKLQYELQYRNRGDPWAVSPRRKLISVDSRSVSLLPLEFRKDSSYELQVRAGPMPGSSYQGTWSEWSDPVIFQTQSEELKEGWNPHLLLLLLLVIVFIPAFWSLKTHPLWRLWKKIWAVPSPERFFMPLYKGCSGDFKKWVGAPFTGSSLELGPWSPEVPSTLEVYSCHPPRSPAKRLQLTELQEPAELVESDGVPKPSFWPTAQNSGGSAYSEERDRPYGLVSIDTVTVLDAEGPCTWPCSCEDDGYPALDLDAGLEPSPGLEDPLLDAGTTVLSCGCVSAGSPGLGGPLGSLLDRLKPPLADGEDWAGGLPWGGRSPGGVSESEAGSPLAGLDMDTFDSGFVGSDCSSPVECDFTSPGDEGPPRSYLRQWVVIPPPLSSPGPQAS
measurement label: Human IL-21R-BaF3 Proliferation IC50 (nM)
The reply should be a number in nM, with the unit left off.

(Q) Entry under review: AbT (antibody, human IgG1, V domains shown, Human IgG1 triple-mutant (L234A, L235A, G237A); Framework limits derived; also called VHP/VL9; VHPTM/VL9) VH: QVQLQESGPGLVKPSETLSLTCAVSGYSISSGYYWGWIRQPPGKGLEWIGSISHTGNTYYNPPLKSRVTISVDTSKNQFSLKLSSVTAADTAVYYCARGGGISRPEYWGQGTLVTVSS VL: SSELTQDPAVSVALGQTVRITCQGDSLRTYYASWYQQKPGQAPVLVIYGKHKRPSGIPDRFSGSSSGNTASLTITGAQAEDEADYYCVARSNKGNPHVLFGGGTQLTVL . Reported Human IL-21R-BaF3 Proliferation IC50?
(A) 0.67

(Q) // query Human IL-21R-BaF3 Proliferation IC50 value for entry AbA (antibody, human IgG1, V domains shown, Full-length human IgG1 / human lambda, transient, conditioned medium; Framework limits derived; also called VHP/VL2) VH: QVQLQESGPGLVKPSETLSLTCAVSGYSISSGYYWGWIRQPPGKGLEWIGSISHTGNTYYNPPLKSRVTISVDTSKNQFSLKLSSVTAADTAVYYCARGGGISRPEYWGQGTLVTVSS VL: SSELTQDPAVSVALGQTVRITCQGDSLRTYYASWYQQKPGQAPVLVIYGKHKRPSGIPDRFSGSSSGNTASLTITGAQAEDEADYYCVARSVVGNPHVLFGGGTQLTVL
(A) 0.97

(Q) # get_value(readout='Human IL-21R-BaF3 Proliferation IC50', item= AbB (antibody, human IgG1, V domains shown, Full-length human IgG1 / human lambda, transient, conditioned medium; Framework limits derived; also called VHP/VL3) VH: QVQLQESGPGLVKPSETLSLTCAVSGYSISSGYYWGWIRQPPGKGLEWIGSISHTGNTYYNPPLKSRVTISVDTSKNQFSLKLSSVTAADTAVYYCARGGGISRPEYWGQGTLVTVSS VL: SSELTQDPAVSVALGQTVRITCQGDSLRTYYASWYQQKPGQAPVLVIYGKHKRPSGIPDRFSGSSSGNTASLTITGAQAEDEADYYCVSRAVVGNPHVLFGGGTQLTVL )
(A) 1.14

(Q) Need Human IL-21R-BaF3 Proliferation IC50, item AbE (antibody, human IgG1, V domains shown, Full-length human IgG1 / human lambda, transient, conditioned medium; Framework limits derived; also called VHP/VL14) VH: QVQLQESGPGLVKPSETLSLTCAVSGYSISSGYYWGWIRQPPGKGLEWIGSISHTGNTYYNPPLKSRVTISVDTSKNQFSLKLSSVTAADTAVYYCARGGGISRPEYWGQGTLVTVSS VL: SSELTQDPAVSVALGQTVRITCQGDSLRTYYASWYQQKPGQAPVLVIYGKHKRPSGIPDRFSGSSSGNTASLTITGAQAEDEADYYCMARSRKGNPHVLFGGGTQLTVL
(A) 0.56
